assay-explanation: yeast display, Sf9 membrane polyspecificity reagent, FACS + sequencing; frameworks hold sequencing errors
property-label: polyreactivity (PSR sort gate)

QVQLVESGGGLVQAGGSLRLSCAASRITFYPNDMGWDRQAPGKERELVAAITTNDGDTYYADSVKGRFTISRDNAKNTVYLQMISLQPEDTAVYYCAADSGSTSEYEYLGQGTQVTVSS    low polyreactivity
QVQLVESGGGLVQAGGSLRLSCAASGRIFGVNAMGWYRQAPGKERELVAVISSGGSTYYADSVKGRFTISRDNAKNTVYLQMNSLKPEDTAVYYCNAVVGRWFPYNLSDYWGQGTQVTVSS    low polyreactivity

###

assay-explanation: yeast display, Sf9 membrane polyspecificity reagent, FACS + sequencing; frameworks hold sequencing errors
property-label: polyreactivity (PSR sort gate)

QVQLVESGGGLVQAGGSLRLSCAASGFILTSYAMGWYRPEPGKERELVAAISSRGGRTYYADSVKGRFTISRDNAKNTVYLQMNSLKPEDTAVYYCNAVVYVVGDFDYWGQGTQVTVSS    high polyreactivity
QVQLQESGRGLVQAGGSLLSCAASGTISWVDEMGWYRHAPGNERELVAGIAGGGNTNYADSLKGRFTISRDNAKNTVYLHMNSQDTAVYYCAVVVFGRGTHIYWCQGTQVTVSS    high polyreactivity

###

assay-explanation: yeast display, Sf9 membrane polyspecificity reagent, FACS + sequencing; frameworks hold sequencing errors
property-label: polyreactivity (PSR sort gate)

Some solved cases for reference:
QVQLVESGGGLVQAGGSLRLSCAASGITFRLYAMGWYRQAPGKERELVAAISKRGGSTYYADSVKGRFTISRDNAKNTVYLQMNSLKPEDTAVYYCAADSGWEHRYDYWGQGTQVTVSS    high polyreactivity
QVQLVESGGGLVQAGGSLRLSCAASGRTFNINAMGWYRPAPGKERELVASISWGGGRTYSADSVKGRFTISRDNAKNTVYLQKNSLKPEDPAVYYCAADYAGNKGVPYYYKYNYWGQGTQVTVSS    high polyreactivity
QVQLVESGGGLVQAGGSLRLSCAASGFIFKVYAMGWYRQAPGKERELVDAISRSGGSTYYADSVKGRFTISRDHAKNTVYLQMKSLKPEDTAVYYCAADYDVTGDSDYWGQGTQVTVSS    low polyreactivity
QVQLVESGGGLVQAGGSLRLSCAASGSIFGGYGMGCYRQAPGKERALVAAITSGSSTYYADSVKGRFTISRDNAKKTVYLQMPSLTPEDTAGYYCNADYAYYRDVYSPYDSWGQGTQVTVSS    low polyreactivity

Now take the following sequence into account.
**Q:** Identify measured polyreactivity (PSR sort gate) associated with "QVQLVESGGGLVQAGGSLRLSCAASGSTFSGYAMGWYRQAPGKEREFVATISISGGSTYYADSVKGRFTISRDNAKNTVYLQMNSLKPEDTAVYYCNADYYFSWGSIVDYWGQGTQVTVSS"
**A:** low polyreactivity

###

assay-explanation: yeast display, Sf9 membrane polyspecificity reagent, FACS + sequencing; frameworks hold sequencing errors
property-label: polyreactivity (PSR sort gate)

Some solved cases for reference:
QVQLVESGGGLVQAGGSLRLSCAASGFIFRYYAMGWYRQAAGTERELVAAISGGGSSTYYADSVKGRFTISRDNAKNTVYLQMNSLKPEDTAVYYSTARYYYPAIKYDYCGQGTQVTVSS    low polyreactivity
QVQLVESGGGLVQAGGSLRLSCAASGITLWQSAKGWYRQAPGKERELVAGITDTGDSTYYADSVKGRFTISRDNAKNTVYLQMNSLKPEDTAVYYCAVPRSALLRAPYELYSWGQGTQVTVSS    low polyreactivity
QVQLEESGGGLVQAGGSLRLSWAASGITFAYYAMGWYRQAPGKERELVAAINYNGGRTYYADSVKGRFTISRDNAKNTVYLQMNSLKPEDTAVYYCAARGYRHFYYWGQGTQVTVSS    high polyreactivity
QVQLVESGGGLVQAGGSLRLSWAASGSTFVVYAMGWYRQAPGKERELVAAIDLSVGDTYYADSVKGRFTISRDNAKNTVFVQMNILKPEDTAVYYCAAEFYSYKYPDYDYWGQGTQVTVSS    low polyreactivity
QVQLVESGGGLVQAGGSHRISCAASGFIFPYYAMGWYRQAPGKERELVAAITSGGSTNYADSVKGRFTISRDNAKNTVYLQMTSLKPEDTAVYYCDKRLKRWSVYCRYDYWGQGTQVTVSS    high polyreactivity
QVQLVESAGGLVQAGGSLRLSCAASGSTLSWNTMGWYRQAPGKERELVARINWGGSSTYYADSVKGRFTISRDNAKNTVYLQMNSLKPEDTAVFYCNARYLSSAYDYWGQGTQVTVSS    high polyreactivity
QVQLVESGGGLVQAGGSLRLSCAASGFTFPAYAMGWYRQAPGKERELVAAISSRGGSTYYADSVKGRFTISRDNAKNTVYLQMNSLKPEDTAVYYCASRRANGYYYWGQGTQVTVSS    high polyreactivity
QVQLVESGGGLVQAGGSLRLSCAASGNTLRYNVMGWYRQAPGKERELVAAISGGGSTSYTDSVKGRFTISRDNAKNTVYLQMNSLKPEDTAVYYCAKRSFVGGRGRDSDYWGQGTQVTVSS    low polyreactivity

Now take the following sequence into account.
**Q:** Identify measured polyreactivity (PSR sort gate) associated with "QVQLVESGGGLVQAGGSLRLSCAASGRIFGTHDMGWYRQAPGKESELVAAIRATSGSTYYADSVKGRFTISRDNAKNTVYLQMYSLKPEDTAVYYCAAEIWRYNSYIKYWHRVDYWGQGTQVTVSS"
**A:** high polyreactivity
